- measured_target: Ionotropic glutamate receptor NMDA 1/2C (Homo sapiens, UniProt Q05586+Q14957)
- Sequence (Q14957 whole entry, other chains not shown): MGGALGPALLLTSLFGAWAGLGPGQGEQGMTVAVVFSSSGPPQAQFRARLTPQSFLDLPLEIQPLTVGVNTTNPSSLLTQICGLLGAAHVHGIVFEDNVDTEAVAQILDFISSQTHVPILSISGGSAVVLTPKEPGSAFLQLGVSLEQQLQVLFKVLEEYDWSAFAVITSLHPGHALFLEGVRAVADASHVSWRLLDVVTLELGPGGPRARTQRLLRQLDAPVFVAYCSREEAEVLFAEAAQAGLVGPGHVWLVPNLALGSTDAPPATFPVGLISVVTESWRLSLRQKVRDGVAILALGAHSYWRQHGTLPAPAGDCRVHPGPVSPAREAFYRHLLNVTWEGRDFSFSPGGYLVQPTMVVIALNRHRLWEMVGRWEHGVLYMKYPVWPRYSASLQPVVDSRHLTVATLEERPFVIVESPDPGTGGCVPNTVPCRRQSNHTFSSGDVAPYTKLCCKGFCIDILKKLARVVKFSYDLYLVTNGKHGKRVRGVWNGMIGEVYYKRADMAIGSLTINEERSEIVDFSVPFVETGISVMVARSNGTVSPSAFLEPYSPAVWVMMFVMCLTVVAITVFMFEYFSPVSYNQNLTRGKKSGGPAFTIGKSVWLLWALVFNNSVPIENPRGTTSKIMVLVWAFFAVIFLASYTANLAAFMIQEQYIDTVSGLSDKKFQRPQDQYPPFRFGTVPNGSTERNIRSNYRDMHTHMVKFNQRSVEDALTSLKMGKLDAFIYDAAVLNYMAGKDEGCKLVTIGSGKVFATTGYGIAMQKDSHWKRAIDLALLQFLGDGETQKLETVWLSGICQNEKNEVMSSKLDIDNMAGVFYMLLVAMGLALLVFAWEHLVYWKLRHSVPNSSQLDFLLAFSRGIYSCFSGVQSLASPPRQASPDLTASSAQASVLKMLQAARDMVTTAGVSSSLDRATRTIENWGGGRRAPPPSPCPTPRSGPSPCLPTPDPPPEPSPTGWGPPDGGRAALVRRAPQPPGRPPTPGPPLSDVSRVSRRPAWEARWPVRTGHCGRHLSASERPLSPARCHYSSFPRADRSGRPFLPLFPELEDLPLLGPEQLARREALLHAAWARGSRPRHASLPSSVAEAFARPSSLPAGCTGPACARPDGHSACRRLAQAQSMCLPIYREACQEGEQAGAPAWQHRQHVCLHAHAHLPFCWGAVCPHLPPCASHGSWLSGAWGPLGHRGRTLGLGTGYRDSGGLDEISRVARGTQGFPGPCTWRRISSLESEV
- experiment_description: Inhibition of recombinant GluN1/GluN2C receptor (unknown origin) expressed in HEK293 cells assessed as inhibition of glutamate-evoked current by whole-cell voltage-clamp method
recorded_metric: IC50

Task item: Recorded IC50 of C[C@H]1CC[C@H]2[C@@H]3CC[C@@H]4C[C@H](OS(=O)(=O)O)CC[C@]4(C)[C@H]3CC[C@]12C.c1ccncc1 , please.
Reply: 400 nM

----------
- measured_target: Glutamate NMDA receptor
- experiment_description: Inhibition of NMDA receptor in rat hippocampal neurons assessed as inhibition of glutamate-evoked current by whole-cell voltage-clamp method
recorded_metric: IC50 (nM)
Numbers only, in nM.

Task item: Recorded IC50 of C[C@H]1CC[C@H]2[C@@H]3CC[C@@H]4C[C@H](OS(=O)(=O)O)CC[C@]4(C)[C@H]3CC[C@]12C.c1ccncc1 , please.
Reply: 900

----------
- measured_target: Glutamate NMDA receptor; GRIN1/GRIN2B (Homo sapiens, UniProt Q05586+Q13224)
- Sequence (Q13224 whole entry, other chains not shown): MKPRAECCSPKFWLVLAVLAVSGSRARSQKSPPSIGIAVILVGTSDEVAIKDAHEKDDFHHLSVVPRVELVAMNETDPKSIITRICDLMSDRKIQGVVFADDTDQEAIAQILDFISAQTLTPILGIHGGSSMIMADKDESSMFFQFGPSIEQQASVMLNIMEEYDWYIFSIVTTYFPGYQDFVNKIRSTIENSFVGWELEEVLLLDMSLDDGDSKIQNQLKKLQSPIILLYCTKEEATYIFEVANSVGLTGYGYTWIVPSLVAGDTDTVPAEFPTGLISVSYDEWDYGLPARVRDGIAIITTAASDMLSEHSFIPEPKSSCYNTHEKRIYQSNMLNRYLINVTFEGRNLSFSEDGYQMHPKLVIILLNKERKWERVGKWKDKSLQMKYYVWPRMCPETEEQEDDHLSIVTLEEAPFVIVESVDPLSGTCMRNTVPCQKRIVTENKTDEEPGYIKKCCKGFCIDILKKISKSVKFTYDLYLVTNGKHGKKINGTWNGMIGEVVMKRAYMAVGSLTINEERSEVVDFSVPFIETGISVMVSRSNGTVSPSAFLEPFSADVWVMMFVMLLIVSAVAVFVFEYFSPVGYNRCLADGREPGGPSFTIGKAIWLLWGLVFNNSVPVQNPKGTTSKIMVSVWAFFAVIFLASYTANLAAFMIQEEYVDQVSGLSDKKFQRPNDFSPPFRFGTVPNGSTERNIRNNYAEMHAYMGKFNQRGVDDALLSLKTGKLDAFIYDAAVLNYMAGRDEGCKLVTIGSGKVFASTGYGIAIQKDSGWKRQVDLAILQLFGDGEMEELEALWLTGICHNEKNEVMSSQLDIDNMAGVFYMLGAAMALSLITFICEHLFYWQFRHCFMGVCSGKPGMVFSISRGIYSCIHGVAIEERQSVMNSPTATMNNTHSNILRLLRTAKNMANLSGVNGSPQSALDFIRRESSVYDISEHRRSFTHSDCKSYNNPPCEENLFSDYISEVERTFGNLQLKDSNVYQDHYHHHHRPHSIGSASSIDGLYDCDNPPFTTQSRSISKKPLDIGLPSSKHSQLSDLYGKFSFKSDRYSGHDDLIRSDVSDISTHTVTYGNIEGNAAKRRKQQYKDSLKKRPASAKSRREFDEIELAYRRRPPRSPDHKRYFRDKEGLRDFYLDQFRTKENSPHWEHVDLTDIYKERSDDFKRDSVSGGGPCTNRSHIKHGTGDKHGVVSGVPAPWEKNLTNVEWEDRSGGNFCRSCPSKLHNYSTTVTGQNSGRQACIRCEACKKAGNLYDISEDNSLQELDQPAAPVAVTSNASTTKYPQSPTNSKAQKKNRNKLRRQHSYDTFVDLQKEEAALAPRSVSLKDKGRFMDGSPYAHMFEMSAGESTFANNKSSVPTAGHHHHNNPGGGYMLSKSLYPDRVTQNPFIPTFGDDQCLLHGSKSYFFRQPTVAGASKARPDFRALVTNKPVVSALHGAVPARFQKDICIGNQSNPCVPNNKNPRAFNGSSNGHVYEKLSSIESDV
- experiment_description: Inhibition of recombinant GluN1/GluN2B receptor (unknown origin) expressed in HEK293 cells assessed as inhibition of glutamate-evoked current by whole-cell voltage-clamp method
recorded_metric: IC50 (nM)
One number for each entry, in nM.

The cases that follow already have their IC50 on record.
C=C1CC[C@H]2[C@@H]3CC[C@@H]4C[C@H](OS(=O)(=O)O)CC[C@]4(C)[C@H]3CC[C@]12C.c1ccncc1
1600
C=C(C)[C@H]1CC[C@H]2[C@@H]3CC[C@@H]4C[C@H](OS(=O)(=O)O)CC[C@]4(C)[C@H]3CC[C@]12C.c1ccncc1
500

Provide IC50 for all items below, preserving their order.
1. C[C@]12CC[C@@H](OS(=O)(=O)O)C[C@H]1CC[C@@H]1[C@@H]2CC[C@@]2(C)[C@H]1CCC2(F)F.c1ccncc1
2. C[C@H]1CC[C@@H]2[C@@H]1CC[C@H]1[C@H]2CC[C@@H]2C[C@H](OS(=O)(=O)O)CC[C@@]21C.c1ccncc1

Reply:
1: 7000; 2: 700

# credit: ChEMBL document CHEMBL3593227
